- systemTested: Prolyl endopeptidase (Homo sapiens) (UniProt P48147)
- testMethodNotes: Inhibition of prolyl oligopeptidase in intact human fibroblasts assessed as blockade of Z-Gly-Pro-AMC substrate hydrolysis at 100 uM by fluorimetric assay
Activity calls are given as the source filed them. The calls are words filed in the database; no cut-off is given here.
measurementType: inhibition

Worked cases, inhibition given:
>>> df
                                   molecule                              systemtested  assayvalue
0  N#CC1CCCCN1C(=O)CNC(=O)OCc1ccccc1 (racemic)  Prolyl endopeptidase (Homo sapiens) (UniProt P48147)    inactive
1  N#C[C@@H]1CO[C@H]2C[C@@H](NC(=O)OCc3ccccc3)C(=O)N12  Prolyl endopeptidase (Homo sapiens) (UniProt P48147)         10%
2  N#C[C@@H]1CS[C@H]2CC[C@H](NC(=O)OCc3ccccc3)C(=O)N12  Prolyl endopeptidase (Homo sapiens) (UniProt P48147)       > 50%
3                           N#C[C@@H]1CCCN1  Prolyl endopeptidase (Homo sapiens) (UniProt P48147)    inactive
4  N#C[C@H]1CS[C@@H]2C[C@@H](NC(=O)OCc3ccccc3)C(=O)N12  Prolyl endopeptidase (Homo sapiens) (UniProt P48147)    inactive

Please report inhibition for every entry that follows.
1. C[C@H]1O[C@H]2C[C@@H](NC(=O)OCc3ccccc3)C(=O)N2[C@@H]1C#N
2. CC(C)(C)OC(=O)N1CCC[C@H]1C#N
3. COC(=O)[C@@H]1CS[C@H]2C[C@@H](NC(=O)OCc3ccccc3)C(=O)N21
4. N#CC1CCSC2CC(NC(=O)OCc3ccccc3)C(=O)N12 (racemic)
5. N#C[C@@H]1CS[C@H]2CC[C@@H](NC(=O)OCc3ccccc3)C(=O)N12

["inactive", "inactive", "10%", "inactive", "> 50%"]

* * *

- systemTested: Prolyl endopeptidase (Homo sapiens)
- testMethodNotes: Inhibition of prolyl oligopeptidase in intact human astrocyte derived cells assessed as blockade of Z-Gly-Pro-AMC substrate hydrolysis at 100 uM by fluorimetric assay
The source made the active and inactive calls. The rule behind the calls is not given here.
measurementType: inhibition

Worked cases, inhibition given:
>>> df
                                   compound  assayvalue
0              CC(C)(C)OC(=O)N1CCC[C@H]1C#N    inactive
1  N#CC1CCCCN1C(=O)CNC(=O)OCc1ccccc1 (racemic)         10%
2  N#C[C@@H]1CO[C@H]2C[C@@H](NC(=O)OCc3ccccc3)C(=O)N12    inactive
3  COC(=O)[C@@H]1CS[C@H]2C[C@@H](NC(=O)OCc3ccccc3)C(=O)N21    inactive
4  NC(=O)[C@@H]1CS[C@H]2C[C@@H](NC(=O)OCc3ccccc3)C(=O)N21    inactive
5  C[C@H]1O[C@H]2C[C@@H](NC(=O)OCc3ccccc3)C(=O)N2[C@@H]1C#N    inactive

Please report inhibition for every entry that follows.
1. N#C[C@@H]1CS[C@H]2CC[C@@H](NC(=O)OCc3ccccc3)C(=O)N12
2. N#C[C@@H]1CCCN1

> 50%
inactive

* * *

- systemTested: Dipeptidyl peptidase 4 (Homo sapiens) (UniProt P27487)
- Sequence (P27487 whole entry, looked up): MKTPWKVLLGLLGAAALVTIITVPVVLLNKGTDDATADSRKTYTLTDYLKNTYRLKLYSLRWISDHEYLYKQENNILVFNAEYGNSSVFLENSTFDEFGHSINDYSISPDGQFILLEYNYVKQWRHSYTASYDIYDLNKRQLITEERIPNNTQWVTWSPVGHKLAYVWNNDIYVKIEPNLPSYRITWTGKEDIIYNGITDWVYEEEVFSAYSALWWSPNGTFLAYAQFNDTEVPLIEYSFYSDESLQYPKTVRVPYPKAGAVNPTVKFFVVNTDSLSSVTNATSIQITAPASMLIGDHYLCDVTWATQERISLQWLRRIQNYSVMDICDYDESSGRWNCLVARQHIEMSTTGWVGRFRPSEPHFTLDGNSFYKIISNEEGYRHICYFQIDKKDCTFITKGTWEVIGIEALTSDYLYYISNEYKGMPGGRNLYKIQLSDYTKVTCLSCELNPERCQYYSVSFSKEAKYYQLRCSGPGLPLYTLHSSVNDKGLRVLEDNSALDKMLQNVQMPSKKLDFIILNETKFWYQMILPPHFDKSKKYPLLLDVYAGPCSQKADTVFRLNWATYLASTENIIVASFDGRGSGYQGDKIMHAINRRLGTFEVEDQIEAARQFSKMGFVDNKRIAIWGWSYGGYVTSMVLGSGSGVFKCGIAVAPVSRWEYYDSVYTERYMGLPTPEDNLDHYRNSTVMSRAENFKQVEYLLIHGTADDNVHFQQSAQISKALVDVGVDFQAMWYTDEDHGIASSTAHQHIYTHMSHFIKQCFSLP
- testMethodNotes: Inhibition of DPP4 in intact human astrocyte derived cells assessed as blockade of Gly-Pro-AMC substrate hydrolysis at 100 uM by fluorimetric assay
The source made the active and inactive calls. The calls are words filed in the database; no cut-off is given here.
measurementType: inhibition

Worked cases, inhibition given:
>>> print(df.to_string())
                                   molecule  measurementtype  assayvalue
0  N#CC1CCSC2CC(NC(=O)OCc3ccccc3)C(=O)N12 (racemic)       inhibition    inactive
1  N#C[C@@H]1CO[C@H]2C[C@@H](NC(=O)OCc3ccccc3)C(=O)N12       inhibition    inactive
2  N#C[C@H]1CS[C@@H]2C[C@@H](NC(=O)OCc3ccccc3)C(=O)N12       inhibition    inactive
3                           N#C[C@@H]1CCCN1       inhibition    inactive
4            N#C[C@@H]1CCCN1C(=O)OCc1ccccc1       inhibition    inactive

Please look up its inhibition: N#C[C@@H]1CS[C@H]2C[C@@H](NC(=O)OCc3ccccc3)C(=O)N12
inactive

* * *

- systemTested: Prolyl endopeptidase (Homo sapiens)
- testMethodNotes: Inhibition of prolyl oligopeptidase in intact human brain derived endothelial cells assessed as blockade of Z-Gly-Pro-AMC substrate hydrolysis at 100 uM by fluorimetric assay
- Assay type: cell-based
- condition: Endothelial cell
Calls of active or inactive are those of the source. The calls are words filed in the database; no cut-off is given here.
measurementType: inhibition

In [3]: df
Out[3]:
                                   molecule  assayvalue
0  NC(=O)[C@@H]1CS[C@H]2C[C@H](NC(=O)OCc3ccccc3)C(=O)N21    inactive
1  N#C[C@@H]1CO[C@H]2C[C@@H](NC(=O)OCc3ccccc3)C(=O)N12    inactive
2  COC(=O)[C@@H]1CS[C@H]2C[C@@H](NC(=O)OCc3ccccc3)C(=O)N21    inactive
3  COC(=O)[C@@H]1CS[C@H]2C[C@H](NC(=O)OCc3ccccc3)C(=O)N21    inactive
4  N#C[C@@H]1CO[C@H]2C[C@H](NC(=O)OCc3ccccc3)C(=O)N12    inactive

Please report inhibition for every entry that follows.
1. N#C[C@@H]1CCCN1
2. N#C[C@@H]1CCCN1C(=O)OCc1ccccc1
3. C[C@H]1O[C@H]2C[C@H](NC(=O)OCc3ccccc3)C(=O)N2[C@@H]1C#N
4. N#C[C@@H]1CS[C@H]2CC[C@@H](NC(=O)OCc3ccccc3)C(=O)N12

1: inactive; 2: inactive; 3: 10%; 4: > 50%

Please report inhibition for every entry that follows.
1. N#CC1CCSC2CC(NC(=O)OCc3ccccc3)C(=O)N12 (racemic)
2. N#C[C@@H]1CS[C@H]2C[C@H](NC(=O)OCc3ccccc3)C(=O)N12
3. N#C[C@H]1CS[C@@H]2C[C@H](NC(=O)OCc3ccccc3)C(=O)N12
4. N#C[C@@H]1CS[C@H]2CC[C@H](NC(=O)OCc3ccccc3)C(=O)N12
5. CC(C)(C)OC(=O)N1CCC[C@H]1C#N

1: inactive; 2: 10%; 3: inactive; 4: 10%; 5: inactive

Please report inhibition for every entry that follows.
1. C[C@H]1O[C@H]2C[C@@H](NC(=O)OCc3ccccc3)C(=O)N2[C@@H]1C#N
2. NC(=O)[C@@H]1CS[C@H]2C[C@@H](NC(=O)OCc3ccccc3)C(=O)N21
3. N#CC1CCCCN1C(=O)CNC(=O)OCc1ccccc1 (racemic)
4. N#C[C@H]1CS[C@@H]2C[C@@H](NC(=O)OCc3ccccc3)C(=O)N12

1. 10%
2. inactive
3. inactive
4. 10%

* * *

- systemTested: Prolyl endopeptidase (Homo sapiens)
- Sequence (whole entry): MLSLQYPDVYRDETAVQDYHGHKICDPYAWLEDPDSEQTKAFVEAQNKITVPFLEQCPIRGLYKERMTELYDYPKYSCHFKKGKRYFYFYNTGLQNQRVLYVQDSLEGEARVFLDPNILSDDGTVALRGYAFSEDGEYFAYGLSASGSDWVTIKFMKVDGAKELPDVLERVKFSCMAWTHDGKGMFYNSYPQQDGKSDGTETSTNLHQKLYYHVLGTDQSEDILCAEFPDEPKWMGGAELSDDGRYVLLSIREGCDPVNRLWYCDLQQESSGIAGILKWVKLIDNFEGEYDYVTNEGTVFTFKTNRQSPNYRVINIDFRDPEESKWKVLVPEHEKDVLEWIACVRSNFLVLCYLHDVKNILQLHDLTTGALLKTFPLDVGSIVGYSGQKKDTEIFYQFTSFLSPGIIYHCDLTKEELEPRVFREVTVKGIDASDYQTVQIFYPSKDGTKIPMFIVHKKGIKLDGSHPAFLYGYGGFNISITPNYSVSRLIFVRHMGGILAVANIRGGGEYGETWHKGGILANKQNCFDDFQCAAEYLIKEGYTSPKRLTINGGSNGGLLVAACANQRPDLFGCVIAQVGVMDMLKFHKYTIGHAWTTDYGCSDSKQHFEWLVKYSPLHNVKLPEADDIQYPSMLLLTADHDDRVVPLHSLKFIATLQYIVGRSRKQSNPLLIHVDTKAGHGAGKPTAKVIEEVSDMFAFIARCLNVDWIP
- testMethodNotes: Inhibition of prolyl oligopeptidase in human fibroblast extracts assessed as blockade of Z-Gly-Pro-AMC substrate hydrolysis at 100 uM by fluorimetric assay
Activity calls are given as the source filed them. The calls are words filed in the database; no cut-off is given here.
measurementType: inhibition

Worked cases, inhibition given:
>>> print(df.to_string())
                                   compound                         systemtested  assayvalue
0  N#CC1CCSC2CC(NC(=O)OCc3ccccc3)C(=O)N12 (racemic)  Prolyl endopeptidase (Homo sapiens)         10%
1  NC(=O)[C@@H]1CS[C@H]2C[C@@H](NC(=O)OCc3ccccc3)C(=O)N21  Prolyl endopeptidase (Homo sapiens)    inactive
2  N#CC1CCCCN1C(=O)CNC(=O)OCc1ccccc1 (racemic)  Prolyl endopeptidase (Homo sapiens)         10%
3  N#C[C@@H]1CS[C@H]2CC[C@H](NC(=O)OCc3ccccc3)C(=O)N12  Prolyl endopeptidase (Homo sapiens)       > 50%

Please look up its inhibition: N#C[C@@H]1CCCN1C(=O)OCc1ccccc1
inactive
